# measured-target: Beta-secretase 1 (Homo sapiens, UniProt P56817)
# Sequence (P56817 whole entry): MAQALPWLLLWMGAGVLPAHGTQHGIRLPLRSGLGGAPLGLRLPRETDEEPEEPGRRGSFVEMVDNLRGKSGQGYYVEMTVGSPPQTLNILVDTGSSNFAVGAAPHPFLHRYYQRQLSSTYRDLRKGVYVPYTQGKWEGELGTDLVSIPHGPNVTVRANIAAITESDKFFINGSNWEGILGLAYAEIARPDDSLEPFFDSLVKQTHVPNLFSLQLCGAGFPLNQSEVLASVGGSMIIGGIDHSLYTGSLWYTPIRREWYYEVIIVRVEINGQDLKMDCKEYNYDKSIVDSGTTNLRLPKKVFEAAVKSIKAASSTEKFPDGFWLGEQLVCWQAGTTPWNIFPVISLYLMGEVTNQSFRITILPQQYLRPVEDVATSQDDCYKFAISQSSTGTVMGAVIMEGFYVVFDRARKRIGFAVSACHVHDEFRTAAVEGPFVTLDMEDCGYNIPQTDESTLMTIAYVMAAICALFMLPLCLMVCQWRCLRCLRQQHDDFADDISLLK
# protocol: Inhibition of recombinant human BACE-1 using SEVNLDAEFK as substrate at 10 uM after 90 mins by FRET assay
Below, each of the molecules is paired with its reported inhibition value.
measured-parameter: inhibition (%)

>>> observed_result("CC1=C(C(=O)Nc2nc3ccccc3s2)C(c2cccc([N+](=O)[O-])c2)C(C(=O)Nc2nc3ccccc3s2)=C(C)N1")
49.4
>>> observed_result("CC1=C(C(=O)Nc2nc3ccccc3s2)C(c2ccccc2[N+](=O)[O-])C(C(=O)Nc2nc3ccccc3s2)=C(C)N1")
65.6
>>> observed_result("CC1=C(C(=O)Nc2nc(C)cs2)C(c2ccccc2[N+](=O)[O-])C(C(=O)Nc2nc(C)cs2)=C(C)N1")
69.4
>>> observed_result("COc1ccc(C2C(C(=O)Nc3nc(C)cs3)=C(C)NC(C)=C2C(=O)Nc2nc(C)cs2)cc1")
44.4
>>> observed_result("CC1=C(C(=O)Nc2nc(C)cs2)C(c2ccc([N+](=O)[O-])cc2)C(C(=O)Nc2nc(C)cs2)=C(C)N1")
77.2
>>> observed_result("CC1=C(C(=O)Nc2cc(C)on2)C(c2cccc([N+](=O)[O-])c2)C(C(=O)Nc2cc(C)on2)=C(C)N1")
11.6
>>> observed_result("CC1=C(C(=O)Nc2nc(C)cs2)C(c2ccco2)C(C(=O)Nc2nc(C)cs2)=C(C)N1")
66.4
>>> observed_result("CC1=C(C(=O)Nc2cc(C)on2)C(c2ccc[nH]2)C(C(=O)Nc2cc(C)on2)=C(C)N1")
24.1

----------
# Species on record: Cavia porcellus
# protocol: Antagonist activity at calcium channel albino guinea pig ileal longitudinal smooth muscle assessed as inhibition of KCl-induced contraction
Below, each of the compounds is paired with its reported IC15 value.
measured-parameter: IC15

>>> observed_result("CC1=C(C(=O)Nc2nc(C)cs2)C(c2ccccc2[N+](=O)[O-])C(C(=O)Nc2nc(C)cs2)=C(C)N1")
"1820 nM"
>>> observed_result("CC1=C(C(=O)Nc2nc3ccccc3s2)C(c2ccccc2[N+](=O)[O-])C(C(=O)Nc2nc3ccccc3s2)=C(C)N1")
"6.47 ×10⁻⁷ M"
>>> observed_result("CC1=C(C(=O)Nc2nc(C)cs2)C(c2ccc([N+](=O)[O-])cc2)C(C(=O)Nc2nc(C)cs2)=C(C)N1")
"4630 nM"
>>> observed_result("COC(=O)C1=C(C)NC(C)=C(C(=O)OC)C1c1ccccc1[N+](=O)[O-]")
"2.02 nM"
>>> observed_result("CC1=C(C(=O)Nc2nc(C)cs2)C(c2ccco2)C(C(=O)Nc2nc(C)cs2)=C(C)N1")
"2260 nM"

----------
# measured-target: UniProtKB P56817
# protocol: Inhibition of recombinant human BACE-1 using SEVNLDAEFK as substrate at 50 uM after 90 mins by FRET assay
measured-parameter: inhibition

>>> observed_result("CC1=C(C(=O)Nc2nc3ccccc3s2)C(c2ccccc2[N+](=O)[O-])C(C(=O)Nc2nc3ccccc3s2)=C(C)N1")
"87.2%"
>>> observed_result("CC1=C(C(=O)Nc2nc3ccccc3s2)C(c2ccc([N+](=O)[O-])cc2)C(C(=O)Nc2nc3ccccc3s2)=C(C)N1")
"90.8%"
>>> observed_result("CC1=C(C(=O)Nc2cc(C)on2)C(c2ccc([N+](=O)[O-])cc2)C(C(=O)Nc2cc(C)on2)=C(C)N1")
"43%"
>>> observed_result("CC1=C(C(=O)Nc2nc(C)cs2)C(c2ccco2)C(C(=O)Nc2nc(C)cs2)=C(C)N1")
"95.1%"
>>> observed_result("COc1ccc(C2C(C(=O)Nc3nc(C)cs3)=C(C)NC(C)=C2C(=O)Nc2nc(C)cs2)cc1")
"86.3%"
>>> observed_result("CC1=C(C(=O)Nc2nc3ccccc3s2)C(c2cccc([N+](=O)[O-])c2)C(C(=O)Nc2nc3ccccc3s2)=C(C)N1")
"56.2%"
>>> observed_result("CC1=C(C(=O)Nc2cc(C)on2)C(c2ccccc2[N+](=O)[O-])C(C(=O)Nc2cc(C)on2)=C(C)N1")
"54%"
>>> observed_result("CC1=C(C(=O)Nc2nc(C)cs2)C(c2ccccc2[N+](=O)[O-])C(C(=O)Nc2nc(C)cs2)=C(C)N1")
"95%"
